target: GSK 3α enzyme isoform (Homo sapiens, UniProt P49840); construct: purchased Life Technologies; test: GSK 3α enzyme inhibition (Z-LYTE FRET); type: biochemical; details: Table 2A; read-out: IC50 Values for Enzyme Inhibition GSK3α
Sequence (P49840 whole entry, canonical isoform): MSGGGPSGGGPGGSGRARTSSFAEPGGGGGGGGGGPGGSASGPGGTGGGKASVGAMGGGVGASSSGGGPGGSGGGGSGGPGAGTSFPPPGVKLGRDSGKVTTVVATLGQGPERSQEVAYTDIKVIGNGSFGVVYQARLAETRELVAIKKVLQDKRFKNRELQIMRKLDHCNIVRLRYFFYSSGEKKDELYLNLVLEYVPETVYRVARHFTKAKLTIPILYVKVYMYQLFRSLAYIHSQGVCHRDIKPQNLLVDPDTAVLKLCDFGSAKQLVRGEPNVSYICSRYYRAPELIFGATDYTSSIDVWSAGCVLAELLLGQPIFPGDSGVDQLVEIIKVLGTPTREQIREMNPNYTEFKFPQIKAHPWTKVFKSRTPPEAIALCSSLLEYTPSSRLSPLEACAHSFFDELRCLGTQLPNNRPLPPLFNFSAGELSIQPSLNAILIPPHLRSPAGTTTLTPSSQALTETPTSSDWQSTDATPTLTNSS
property: IC50 (µM)
// units = µM; emit number, no label

Please review the entries below; each comes with its answer.
COCCNC(=O)c1cnc(Nc2cc(COc3ccc(NC(=O)Nc4cc(C(C)(C)C)nn4-c4ccc(C)s4)c4ccccc34)ccn2)cn1 [Example 43]	7.92
CC(C)(C)c1cc(NC(=O)Nc2ccc(OCc3ccnc(Nc4cnccn4)c3)c3ccccc23)n(-c2cccc(F)c2)n1 [Example 49]	4.48
COc1ccc(-n2nc(C(C)(C)C)cc2NC(=O)Nc2ccc(OCc3ccnc(Nc4cnccn4)c3)c3ccccc23)cc1 [Example 38]	5.99

Next molecule, please.
[ask] Under GSK 3α enzyme isoform (Homo sapiens, UniProt P49840): report IC50 of Cc1ccc(-n2nc(C(C)(C)C)cc2NC(=O)Nc2ccc(OCc3ccnc(Nc4cnc(C(=O)NCCN5CCOCC5)cn4)c3)c3ccccc23)cc1 [Example 17] .
[reply] 2.82

* * *

biological target: c-Src (Homo sapiens)
Sequence (P12931 whole entry): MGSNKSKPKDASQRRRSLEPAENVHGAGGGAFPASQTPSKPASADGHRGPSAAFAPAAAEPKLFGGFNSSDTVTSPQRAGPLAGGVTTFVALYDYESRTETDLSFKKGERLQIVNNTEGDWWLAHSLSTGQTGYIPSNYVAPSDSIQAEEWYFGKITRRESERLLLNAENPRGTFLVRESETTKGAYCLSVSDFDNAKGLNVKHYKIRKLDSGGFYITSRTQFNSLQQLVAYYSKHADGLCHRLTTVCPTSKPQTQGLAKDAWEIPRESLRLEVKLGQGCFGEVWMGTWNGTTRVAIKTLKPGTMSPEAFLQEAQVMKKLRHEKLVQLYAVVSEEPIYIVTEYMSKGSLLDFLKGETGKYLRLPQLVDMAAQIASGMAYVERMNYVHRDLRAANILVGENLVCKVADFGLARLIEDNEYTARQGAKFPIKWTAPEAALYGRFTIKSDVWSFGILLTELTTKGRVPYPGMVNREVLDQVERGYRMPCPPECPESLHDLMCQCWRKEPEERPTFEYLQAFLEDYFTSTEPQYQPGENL
pIC50: −log10 of the molar value.
We use 7 as the dividing line for pIC50: on or above the line is YES, below is NO.

# count of solved cases: 3
COc1ccc(-n2nc(C(C)(C)C)cc2NC(=O)Nc2ccc(OCc3ccnc(Nc4cnccn4)c3)c3ccccc23)cc1Cl	NO
COc1cncc(Nc2cc(COc3ccc(NC(=O)Nc4cc(C(C)(C)C)nn4-c4ccc(C)cc4)c4ccccc34)ccn2)n1	NO
CCc1cnc(Nc2cc(COc3ccc(NC(=O)Nc4cc(C(C)(C)C)nn4-c4ccc(C)cc4)c4ccccc34)ccn2)cn1	NO

[ask] Threshold query (pIC50 >= 7) on Cc1ccc(-n2nc(C(C)(C)C)cc2NC(=O)Nc2ccc(OCc3ccnc(Nc4cnc(CN)cn4)c3)c3ccccc23)cc1
[reply] YES

[ask] Threshold query (pIC50 >= 7) on Cc1cc(-n2nc(C(C)(C)C)cc2NC(=O)Nc2ccc(OCc3ccnc(Nc4cncc(C5CC5)n4)c3)c3ccccc23)cs1
[reply] YES

[ask] Threshold query (pIC50 >= 7) on CNC(=O)Cc1cnc(Nc2cc(COc3ccc(NC(=O)Nc4cc(C(C)(C)C)nn4-c4ccc(C)cc4)c4ccccc34)ccn2)cn1
[reply] YES

[ask] Threshold query (pIC50 >= 7) on Cc1ccc(-n2nc(C(C)(C)C)cc2NC(=O)Nc2ccc(OCc3ccnc(Nc4cnc(CC(=O)N(C)C)cn4)c3)c3ccccc23)cc1
[reply] YES

[ask] Threshold query (pIC50 >= 7) on CC(C)c1ccc(-n2nc(C(C)(C)C)cc2NC(=O)Nc2ccc(OCc3ccnc(Nc4cnccn4)c3)c3ccccc23)cc1
[reply] NO

* * *

Target: p38 MAPKα isoform (MAPK14) (Homo sapiens)
Construct: purchased Life Technologies
Assay: p38 MAPKα enzyme inhibition (Z-LYTE FRET)
Assay type: biochemical
Settings: Table 2A; read-out: IC50 Values for Enzyme Inhibition p38 MAPKα
Protocol: The enzyme inhibitory activities of compounds disclosed herein were determined by FRET using synthetic peptides labelled with both donor and acceptor fluorophores (Z-LYTE, Life Technologies, Paisley, UK). The inhibitory activities of compounds of the invention against the p38 MAPKα isoform (MAPK14: Life Technologies), were evaluated indirectly by determining the level of activation/phosphorylation of the target peptide of the p38 MAPKα down-stream molecule, MAPKAP-K2. […]
property: pIC50
As a rule, pIC50 stands for the negative log10 of the concentration, concentration in M.

Please review the entries below; each comes with its answer.
Cc1ccc(-n2nc(C(C)(C)C)cc2NC(=O)Nc2ccc(OCc3ccnc(Nc4cncc(CO)n4)c3)c3ccccc23)cc1	8.30
CC(C)(C)c1cc(NC(=O)Nc2ccc(OCc3ccnc(Nc4cncc(C5CC5)n4)c3)c3ccccc23)n(-c2ccc(O)cc2)n1	7.89

[ask] Check the records and state pIC50 for Cc1ccc(-n2nc(C(C)(C)C)cc2NC(=O)Nc2ccc(OCc3ccnc(Nc4cnc(CO)cn4)c3)c3ccccc23)cc1
[reply] 8.10

[ask] Check the records and state pIC50 for Cc1ccc(-n2nc(C(C)(C)C)cc2NC(=O)Nc2ccc(OCc3ccnc(Nc4cncc(C5CCC5)n4)c3)c3ccccc23)cc1
[reply] 7.06

* * *

Heads up, these compounds all have IC50 values measured for c-Src (Homo sapiens, UniProt P12931).
// units = nM; emit number, no label

Please review the entries below; each comes with its answer.
Cc1ccc(-n2nc(C(C)(C)C)cc2NC(=O)Nc2ccc(OCc3ccnc(Nc4cncc(CO)n4)c3)c3ccccc23)cc1 [Example 21]	33
COc1ccc(-n2nc(C(C)(C)C)cc2NC(=O)Nc2ccc(OCc3ccnc(Nc4cncc(C5CC5)n4)c3)c3ccccc23)cc1 [Example 22]	27

Next compound, please.
[ask] Check the records and state IC50 for Cc1cc(-n2nc(C(C)(C)C)cc2NC(=O)Nc2ccc(OCc3ccnc(Nc4cnccn4)c3)c3ccccc23)cs1 (single isomer, unassigned) [Example 31]
[reply] 154

* * *

target: p38 MAPKα isoform (MAPK14) (Homo sapiens, UniProt Q16539); construct: purchased Life Technologies; assay: p38 MAPKα enzyme inhibition (Z-LYTE FRET); type: biochemical; settings: Table 2B, unit inferred; read-out: p38 MAPKα (Enzyme Profile)
Sequence (Q16539 whole entry, canonical isoform): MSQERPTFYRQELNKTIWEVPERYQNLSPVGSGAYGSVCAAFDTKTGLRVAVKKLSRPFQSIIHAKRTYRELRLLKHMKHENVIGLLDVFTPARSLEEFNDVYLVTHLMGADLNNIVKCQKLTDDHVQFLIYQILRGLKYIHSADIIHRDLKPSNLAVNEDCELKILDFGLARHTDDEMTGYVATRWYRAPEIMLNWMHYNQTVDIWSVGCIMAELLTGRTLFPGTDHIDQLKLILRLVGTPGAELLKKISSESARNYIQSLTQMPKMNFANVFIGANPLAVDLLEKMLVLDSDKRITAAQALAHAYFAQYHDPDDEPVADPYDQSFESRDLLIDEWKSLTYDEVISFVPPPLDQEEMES
# pIC50 values compiled below
As a rule, pIC50 stands for the negative log10 of the concentration, concentration in M.

CO[C@H]1CCN(C(=O)c2cnc(Nc3cc(COc4ccc(NC(=O)Nc5cc(C(C)(C)C)nn5-c5cccc(C)c5)c5ccccc45)ccn3)cn2)C1	7.89

[ask] Check the records and state pIC50 for CCOc1ccc(-n2nc(C(C)(C)C)cc2NC(=O)Nc2ccc(OCc3ccnc(Nc4cnccn4)c3)c3ccccc23)cc1F
[reply] 7.42

[ask] Check the records and state pIC50 for Cc1ccc(-n2nc(C(C)(C)C)cc2NC(=O)Nc2ccc(OCc3ccnc(Nc4cnc(C(=O)NCCC(C)(C)O)cn4)c3)c3ccccc23)cc1
[reply] 7.96

[ask] Check the records and state pIC50 for COC(C)(C)CNC(=O)c1cnc(Nc2cc(COc3ccc(NC(=O)Nc4cc(C(C)(C)C)nn4-c4ccc(C)cc4)c4ccccc34)ccn2)cn1
[reply] 7.37

[ask] Check the records and state pIC50 for COc1ccc(-n2nc(C(C)(C)C)cc2NC(=O)Nc2ccc(OCc3ccnc(Nc4cnc(C)c(C)n4)c3)c3ccccc23)cc1C
[reply] 7.28

[ask] Check the records and state pIC50 for CC(C)(C)c1cc(NC(=O)Nc2ccc(OCc3ccnc(Nc4cnccn4)c3)c3ccccc23)n(-c2ccc(F)cc2)n1
[reply] 7.80

* * *

target: p38MAPKγ (MAPK12) (Homo sapiens, UniProt P53778); construct: purchased Life Technologies; experiment: p38 MAPKγ enzyme inhibition (Z-LYTE FRET); assay type: biochemical; details: Table 2B, unit inferred; read-out: p38 MAPKγ (Enzyme Profile)
Sequence (P53778 whole entry): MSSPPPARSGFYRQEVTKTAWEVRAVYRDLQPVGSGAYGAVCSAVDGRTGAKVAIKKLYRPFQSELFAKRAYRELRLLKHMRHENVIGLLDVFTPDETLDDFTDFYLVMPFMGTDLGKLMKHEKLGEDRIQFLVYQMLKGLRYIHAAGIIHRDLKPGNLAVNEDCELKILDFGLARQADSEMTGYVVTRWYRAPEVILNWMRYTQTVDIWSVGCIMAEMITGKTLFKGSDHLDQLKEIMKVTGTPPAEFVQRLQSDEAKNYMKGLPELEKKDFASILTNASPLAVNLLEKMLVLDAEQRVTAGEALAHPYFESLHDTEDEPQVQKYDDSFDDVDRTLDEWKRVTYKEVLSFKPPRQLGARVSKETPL
property: pIC50
As a rule, pIC50 stands for the negative log10 of the concentration, concentration in M.

CCc1cncc(Nc2cc(COc3ccc(NC(=O)Nc4cc(C(C)(C)C)nn4-c4cccc(COC)c4)c4ccccc34)ccn2)n1	6.76
CCc1cncc(Nc2cc(COc3ccc(NC(=O)Nc4cc(C(C)(C)C)nn4-c4cccc(F)c4)c4ccccc34)ccn2)n1	6.25
Cc1ccc(-n2nc(C(C)(C)C)cc2NC(=O)Nc2ccc(OCc3ccnc(Nc4cnc(C)c(C5CC5)n4)c3)c3ccccc23)cc1	6.64
Cc1ccc(-n2nc(C(C)(C)C)cc2NC(=O)Nc2ccc(OCc3ccnc(Nc4cncc(CCO)n4)c3)c3ccccc23)cc1	7.31
COC1CN(C(=O)c2cnc(Nc3cc(COc4ccc(NC(=O)Nc5cc(C(C)(C)C)nn5-c5ccc(C)cc5)c5ccccc45)ccn3)cn2)C1	6.41

[ask] Under p38MAPKγ (MAPK12) (Homo sapiens, UniProt P53778): report pIC50 of CCOc1cncc(Nc2cc(COc3ccc(NC(=O)Nc4cc(C(C)(C)C)nn4-c4ccc(C)cc4)c4ccccc34)ccn2)n1 .
[reply] 5.55

[ask] Under p38MAPKγ (MAPK12) (Homo sapiens, UniProt P53778): report pIC50 of COCc1cccc(-n2nc(C(C)(C)C)cc2NC(=O)Nc2ccc(OCc3ccnc(Nc4cnc(C(=O)NCC5CCN(C)CC5)cn4)c3)c3ccccc23)c1 .
[reply] 7.96

[ask] Under p38MAPKγ (MAPK12) (Homo sapiens, UniProt P53778): report pIC50 of CCCc1cncc(Nc2cc(COc3ccc(NC(=O)Nc4cc(C(C)(C)C)nn4-c4cccc(C)c4)c4ccccc34)ccn2)n1 .
[reply] 5.10

[ask] Under p38MAPKγ (MAPK12) (Homo sapiens, UniProt P53778): report pIC50 of CCNC(=O)c1cnc(Nc2cc(COc3ccc(NC(=O)Nc4cc(C(C)(C)C)nn4-c4ccc(C)cc4)c4ccccc34)ccn2)cn1 .
[reply] 6.34

[ask] Under p38MAPKγ (MAPK12) (Homo sapiens, UniProt P53778): report pIC50 of COCc1cnc(Nc2cc(COc3ccc(NC(=O)Nc4cc(C(C)(C)C)nn4-c4cccc(C)c4)c4ccccc34)ccn2)cn1 .
[reply] 6.61

[ask] Under p38MAPKγ (MAPK12) (Homo sapiens, UniProt P53778): report pIC50 of COCCNC(=O)c1cnc(Nc2cc(COc3ccc(NC(=O)Nc4cc(C(C)(C)C)nn4-c4ccc(C)c(C)c4)c4ccccc34)ccn2)cn1 .
[reply] 6.31

[ask] Under p38MAPKγ (MAPK12) (Homo sapiens, UniProt P53778): report pIC50 of CC(C)(C)c1cc(NC(=O)Nc2ccc(OCc3ccnc(Nc4cnccn4)c3)c3ccccc23)n(-c2cccc(CO)c2)n1 .
[reply] 7.25

[ask] Under p38MAPKγ (MAPK12) (Homo sapiens, UniProt P53778): report pIC50 of COc1cc(C)cc(-n2nc(C(C)(C)C)cc2NC(=O)Nc2ccc(OCc3ccnc(Nc4cnccn4)c3)c3ccccc23)c1 .
[reply] 6.66

[ask] Under p38MAPKγ (MAPK12) (Homo sapiens, UniProt P53778): report pIC50 of Cc1cc(-n2nc(C(C)(C)C)cc2NC(=O)Nc2ccc(OCc3ccnc(Nc4cnccn4)c3)c3ccccc23)ccn1 .
[reply] 7.24

[ask] Under p38MAPKγ (MAPK12) (Homo sapiens, UniProt P53778): report pIC50 of Cc1ccc(-n2nc(C(C)(C)C)cc2NC(=O)Nc2ccc(OCc3ccnc(Nc4cncc(CN5CCOCC5)n4)c3)c3ccccc23)cc1 .
[reply] 7.08

[ask] Under p38MAPKγ (MAPK12) (Homo sapiens, UniProt P53778): report pIC50 of Cc1ncc(Nc2cc(COc3ccc(NC(=O)Nc4cc(C(C)(C)C)nn4-c4cccc(F)c4)c4ccccc34)ccn2)nc1C .
[reply] 6.35

[ask] Under p38MAPKγ (MAPK12) (Homo sapiens, UniProt P53778): report pIC50 of Cc1ccc(-n2nc(C(C)(C)C)cc2NC(=O)Nc2ccc(OCc3ccnc(Nc4cnc(C(=O)N[C@H]5CCN(C)C5)cn4)c3)c3ccccc23)cc1 .
[reply] 7.41

[ask] Under p38MAPKγ (MAPK12) (Homo sapiens, UniProt P53778): report pIC50 of Cc1ccc(-n2nc(C(C)(C)C)cc2NC(=O)Nc2ccc(OCc3ccnc(Nc4cnc(C(=O)N5CCN(C)C(=O)C5)cn4)c3)c3ccccc23)cc1 .
[reply] 7.34

[ask] Under p38MAPKγ (MAPK12) (Homo sapiens, UniProt P53778): report pIC50 of Cc1ccc(-n2nc(C(C)(C)C)cc2NC(=O)Nc2ccc(OCc3ccnc(Nc4cnc(C(=O)N[C@@H](C)CN5CCOCC5)cn4)c3)c3ccccc23)cc1 .
[reply] 6.71

[ask] Under p38MAPKγ (MAPK12) (Homo sapiens, UniProt P53778): report pIC50 of Cc1ccc(-n2nc(C(C)(C)C)cc2NC(=O)Nc2ccc(OCc3ccnc(Nc4cnc(CN5CCN(C)CC5)cn4)c3)c3ccccc23)cc1 .
[reply] 7.51

[ask] Under p38MAPKγ (MAPK12) (Homo sapiens, UniProt P53778): report pIC50 of Cc1ccc(-n2nc(C(C)(C)C)cc2NC(=O)Nc2ccc(OCc3ccnc(Nc4cnc(C(=O)NC5CCN(CCO)CC5)cn4)c3)c3ccccc23)cc1 .
[reply] 7.14

Cited source: patent US11142515B2
